ASSAY_METRIC: melting point

molecule=CC(=O)N1CCN(CCC(=O)O)CC1 assay_metric="melting point" result="114 to 116 °C"
molecule="O=C(O)c1ccc(S(=O)(=O)NCC2CCCO2)cc1 (centres undefined)" assay_metric="melting point" result="169 to 171 °C"
molecule=O=C1CC(=O)CC2(CCCCC2)C1 assay_metric="melting point" result="169 to 171 °C"
molecule=Nc1cnn(-c2ccc(C(F)(F)F)cc2)c1 assay_metric="melting point" result="159 to 161 °C"
molecule=O=C(NC1CCCC1)c1cnc(Cl)c(Cl)c1 assay_metric="melting point" result="159 to 161 °C"
molecule=Cn1c(C(=O)O)ccc1-c1ccc(F)cc1 assay_metric="melting point" result="159 to 161 °C"
molecule=Nc1c(C(=O)O)[nH]c(=O)[nH]c1=O assay_metric="melting point" result="300 to 302 °C"
molecule=NCc1ccc(N2CCOCC2)c(F)c1 assay_metric="melting point" result="36 to 38 °C"
molecule=ClCc1coc(-c2ccccc2Cl)n1 assay_metric="melting point" result="54 to 56 °C"
molecule=Nc1ccc(Br)c(C(=O)O)c1 assay_metric="melting point" result="171 to 179 °C"
molecule="CC(C)(C)OC(=O)NC(C(=O)O)C(C)(C)C (centres undefined)" assay_metric="melting point" result="117 to 119 °C"
molecule=N#Cc1cccc(-c2nnc(N)o2)c1 assay_metric="melting point" result="253 to 255 °C"
molecule=CSc1nc(C(=O)O)c2ccccn12 assay_metric="melting point" result="202 to 204 °C"
molecule=O=C(O)c1ccc(S(=O)(=O)CC(F)(F)F)cc1 assay_metric="melting point" result="239 to 241 °C"
